measuredTarget: human IDO1 (Homo sapiens)
Construct: expressed in transfected cells
method: HEK293 human IDO1 cell-based IDO inhibition assay
conditionInfo: read-out: HEK Human IDO-1 Potency
pIC50: −log10 of the molar value.
Recorded pIC50 for the following compounds

// below: answered compounds
Cc1ccc(NC(=O)CC2(C)CCN(c3ccnc4ccc(F)cc34)CC2)cc1 [Example 121] : < 6.60
C[C@H](C(=O)Nc1ccc(Cl)cc1)[C@H]1CC[C@H](c2ccnc3ncccc32)CC1 (single isomer, unassigned) [Example 148c] : > 7.30
C[C@@H](C(=O)Nc1ccc(Cl)cc1)[C@H]1CC[C@@H](c2ccnc3ccnn32)CC1 (single isomer, unassigned) [Example 144b] : < 6.60
CCCC(C(=O)Nc1ccc(Cl)cc1)N1CCN(c2ccnc3ccc(F)cc23)CC1 (racemic) [Example 244] : > 6.60
CCOc1ccc(NC(=O)C(C)N2CCC(Oc3ccnc4ccc(F)cc34)CC2)cc1 (centres unmarked) [compound 100] : > 7.30

### Prompt Tell me its pIC50 on human IDO1 (Homo sapiens): O=C(CC1CCN(c2ccnc3ccc(F)cc23)CC1)Nc1ccc(Cl)cc1 [Example 116]
### Response < 6.60

### Prompt Print human IDO1 (Homo sapiens) pIC50 for CCC(C(=O)Nc1ccc(Cl)cc1)[C@H]1CC[C@@H](Oc2ccnc3ccc(C(F)(F)F)cc23)CC1 (mixture of isomers) [Example 89] .
### Response < 6.60

### Prompt Output reported pIC50 of the compound CC(C(=O)Nc1ccc(Br)cc1)N1CCN(c2ccnc3ccc(F)cc23)CC1 (racemic) [Example 127] on human IDO1 (Homo sapiens).
### Response < 6.60

### Prompt Provide pIC50, recorded with human IDO1 (Homo sapiens), of Cc1ccc(NC(=O)C(C)N2CCC(Oc3ccc4nccc(Cl)c4c3)CC2)cc1 (racemic) [Example 92]
### Response < 6.60

### Prompt // fetch pIC50; item: CC(C(=O)Nc1ccc(Cl)cc1)N1CCN(c2ccnc3ccc(F)cc23)CC1 (single isomer, unassigned) [Example 130] ; system: human IDO1 (Homo sapiens)
### Response < 6.60

###

measuredTarget: human IDO1 (Homo sapiens)
Construct: expressed in transfected cells
method: HEK293 human IDO1 cell-based IDO inhibition assay
conditionInfo: read-out: HEK Human IDO-1 Potency
Description: 1HEK293 cells were transfected with a pCDNA-based mammalian expression vector harboring human IDO1 cDNA (NM 002164.2) by electroporation. They were cultured in medium (DMEM with 10% FBS) containing 1 mg/ml G418 for two weeks. […] The compound treatments were stopped by adding Trichloroacetic Acid (Sigma-Aldrich) to a final concentration at 0.2%. […] The absorbance at 490 nm was measured on Envision plate reader.
pIC50: −log10 of the molar value.
readoutKind: pIC50

CCC(C(=O)Nc1ccc(Cl)cc1)[C@H]1CC[C@@H](Oc2ccnc3ccc(C(F)(F)F)cc23)CC1 (single isomer, unassigned) [Example 89b] : < 6.60

Here is another compound to look at.
### Prompt Report pIC50 for C=CC[C@@H](C(=O)Nc1ccc(Cl)cc1N)[C@H]1CC[C@@H](c2ccnc3ccc(F)cc32)CC1
### Response > 7.30

###

measuredTarget: human IDO1 (Homo sapiens)
Construct: expressed in transfected cells
method: HEK293 human IDO1 cell-based IDO inhibition assay
conditionInfo: read-out: HEK Human IDO-1 Potency
Experimental: 1HEK293 cells were transfected with a pCDNA-based mammalian expression vector harboring human IDO1 cDNA (NM 002164.2) by electroporation. They were cultured in medium (DMEM with 10% FBS) containing 1 mg/ml G418 for two weeks. […] The compound treatments were stopped by adding Trichloroacetic Acid (Sigma-Aldrich) to a final concentration at 0.2%. […] The absorbance at 490 nm was measured on Envision plate reader.
pIC50: −log10 of the molar value.
Below, each entry is listed with its recorded pIC50.

Some compounds with known pIC50 results, for comparison:
CC(C(=O)Nc1ccc(Cl)cc1)N1CCC(Oc2ccc3nccc(Cl)c3c2)CC1 (single isomer, unassigned) [Example 93] : > 7.30
C[C@@H](C(=O)Nc1ccc(Cl)c(O)c1)[C@H]1CC[C@@H](c2ccnc3ccc(F)cc32)CC1 : > 7.30
CC1(CC(=O)Nc2cncnc2)CCN(c2ccnc3ccc(F)cc23)CC1 : < 6.60
Cc1ccc(NC(=O)C(C)N2CCC(Oc3ccnc4ccc(F)cc34)CC2)cc1 (single isomer, unassigned) [compound 109] : > 7.30
C[C@@H](C(=O)Nc1ccc(Cl)cc1)[C@H]1CC[C@@H](c2ccnc3c2ncn3C)CC1 (single isomer, unassigned) [Example 251c] : > 7.30

### Prompt Please indicate pIC50 recorded for CCCC(C(=O)Nc1ccc(Cl)cc1)N1CCN(c2ccnc3ccc(F)cc23)CC1 (single isomer, unassigned) [Example 246]
### Response < 6.60

### Prompt Return pIC50 (reported value) for this compound: CC(C(=O)Nc1ccc(F)cc1)N1CCC(Oc2ccnc3ccc(F)cc23)CC1 (stereo not shown) [compound 99]
### Response > 7.30

###

measuredTarget: human IDO1 (Homo sapiens, UniProt P14902)
Construct: expressed in transfected cells
Sequence (P14902 whole entry): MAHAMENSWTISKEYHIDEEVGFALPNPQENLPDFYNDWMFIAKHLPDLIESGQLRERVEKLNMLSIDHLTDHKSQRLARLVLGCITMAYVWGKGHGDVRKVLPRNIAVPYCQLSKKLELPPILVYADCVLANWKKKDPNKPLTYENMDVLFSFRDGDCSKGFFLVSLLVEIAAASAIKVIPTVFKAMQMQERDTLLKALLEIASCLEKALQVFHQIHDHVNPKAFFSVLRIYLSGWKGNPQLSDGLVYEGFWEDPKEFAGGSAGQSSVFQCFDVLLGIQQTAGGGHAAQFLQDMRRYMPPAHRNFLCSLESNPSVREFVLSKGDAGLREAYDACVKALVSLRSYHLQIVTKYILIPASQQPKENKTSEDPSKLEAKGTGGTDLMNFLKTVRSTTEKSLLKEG
method: HEK293 human IDO1 cell-based IDO inhibition assay
conditionInfo: read-out: HEK Human IDO-1 Potency
pIC50: −log10 of the molar value.
readoutKind: pIC50

C[C@@H](C(=O)Nc1ccc(Cl)cc1)[C@H]1CC[C@@H](c2ccnc3c2ncn3C)CC1 (single isomer, unassigned) [Example 251a] : > 7.30
CCC(C(=O)Nc1ccc(Cl)cc1)C1CCC(c2ccnc3ccc(F)cc23)CC1 (mixture of isomers) : > 7.30
C[C@@H](C(=O)Nc1ccc(Cl)cc1)[C@H]1CC[C@H](c2ccnc3ncccc32)CC1 (single isomer, unassigned) [Example 148d] : > 6.60
Cc1ccc(NC(=O)C(C)N2CCC(Oc3ccnc4ccc(F)cc34)CC2)cc1 (single isomer, unassigned) [compound 110] : < 6.60
CC(C(=O)Nc1ccc(Cl)cc1)[C@H]1CC[C@H](Oc2ccnc3ncccc23)CC1 (mixture of isomers) : > 7.30

// below: pIC50 requested for another compound
### Prompt Query pIC50 for C[C@H](C(=O)Nc1ccc(Cl)cc1)[C@H]1CC[C@@H](c2ccnc3ccc(I)cc32)CC1 (single isomer, unassigned) [Example 152a]
### Response > 7.30

###

measuredTarget: human IDO1 (Homo sapiens, UniProt P14902)
Construct: expressed in transfected cells
method: HEK293 human IDO1 cell-based IDO inhibition assay
conditionInfo: read-out: HEK Human IDO-1 Potency
pIC50: −log10 of the molar value.
readoutKind: pIC50

CC(C(=O)Nc1ccccc1)N1CCN(c2ccnc3ccc(F)cc23)CC1 (racemic) : < 6.60
CC(C(=O)Nc1ccc(Cl)cc1)N1CCN(c2ccnc3ccc(F)cc23)CC1 (single isomer, unassigned) [Example 129] : > 6.60
CC(C)C(C(=O)Nc1ccc(Cl)cc1)N1CCC(Oc2ccnc3ccc(F)cc23)CC1 (racemic) : < 6.60
CCOc1ccc(NC(=O)[C@H](C)[C@H]2CC[C@@H](c3ccnc4ccc(F)cc43)CC2)cc1 : > 7.30
CCOc1ccc(NC(=O)CC2(C)CCN(c3ccnc4ccc(F)cc34)CC2)cc1 : > 6.60
Cc1ccc(NC(=O)CC2CCN(c3ccnc4ccc(F)cc34)CC2)c(F)c1 : < 6.60
CC(C(=O)Nc1ccc(Cl)cc1)C1CCC(c2ccnc3cn[nH]c23)CC1 (racemic) : > 7.30
Cc1ccc(NC(=O)[C@H](C)[C@H]2CC[C@@H](c3ccnc4ccc(F)cc43)CC2)cc1Cl : > 7.30

### Prompt Please give measured pIC50 of the following entry: C[C@@H](C(=O)Nc1ccc(Oc2ccccc2)cc1)[C@H]1CC[C@@H](c2ccnc3ccc(F)cc32)CC1
### Response > 7.30

###

As shown below, each of these compounds has a reported pIC50 value.
measuredTarget: human IDO1 (Homo sapiens)
Construct: expressed in transfected cells
method: HEK293 human IDO1 cell-based IDO inhibition assay
conditionInfo: read-out: HEK Human IDO-1 Potency
pIC50: −log10 of the molar value.

CCC(C(=O)Nc1ccc(Cl)cc1)N1CCC(Oc2ccnc3ccc(F)cc23)CC1 (stereo not shown) [compound 112] : < 6.60
C[C@@H](C(=O)Nc1cccc(Cl)c1)[C@H]1CC[C@@H](c2ccnc3ccc(F)cc32)CC1 : > 7.30
C[C@@H](C(=O)Nc1ccccc1Oc1ccccc1)[C@H]1CC[C@@H](c2ccnc3ccc(F)cc32)CC1 [Example 73a] : < 6.60
CCOc1ccc(NC(=O)C(C)N2CCC(Oc3ccnc4ccc(F)cc34)CC2)cc1 (stereo not shown) [compound 107] : > 7.30
C[C@@H](C(=O)Nc1ccc(Cl)cc1)[C@H]1CC[C@@H](c2ccnc3ccc(I)cc32)CC1 (single isomer, unassigned) [Example 152b] : > 7.30

### Prompt Fetch value of pIC50 on human IDO1 (Homo sapiens) for C[C@H](C(=O)Nc1ccc(Cl)cc1)[C@H]1CC[C@H](c2ccnc3ccnn32)CC1 (single isomer, unassigned) [Example 144c] .
### Response > 6.60

### Prompt # return pIC50 of Cc1cc(Cl)ccc1NC(=O)CC1CCN(c2ccnc3ccc(F)cc23)CC1 (system: human IDO1 (Homo sapiens))
### Response < 6.60
